For each record, write down the corresponding Ki.
The figure you give is taken to be in µM; do not add the unit.

Value wanted: Ki (mGAT1 (Mus musculus, UniProt P31648)) of entry O=C(O)C1CCCN(CC=C=C(c2ccccc2)c2ccc(-c3ccccc3)cc2)C1 (racemic) [8f]
1.23

Value wanted: Ki (mGAT1 (Mus musculus, UniProt P31648)) of entry Cc1ccc(C(=C=CCN2CCCC(C(=O)O)C2)c2ccc(C)cc2)cc1 (racemic) [rac-8b]
1.38

Value wanted: Ki (mGAT1 (Mus musculus, UniProt P31648)) of entry O=C(O)[C@H]1CCCN(CC=C=C(c2ccc(Cl)cc2)c2ccc(Cl)cc2)C1 [(S)-8d]
2.51

Value wanted: Ki (mGAT1 (Mus musculus, UniProt P31648)) of entry O=C(O)C1CCCN(CCC=C=C(c2ccccc2)c2ccc(-c3ccccc3)cc2)C1 (racemic) [11f]
0.891

Value wanted: Ki (mGAT1 (Mus musculus, UniProt P31648)) of entry Cc1ccc(C(=C=CCCN2CCCC(C(=O)O)C2)c2ccc(C)cc2)cc1 (racemic) [rac-11b]
1.58
